assayed_system: PSA (human, UniProt P07288)
assay_method_text: SPR
Bridge positions count the residues as written; N and C are the ends. Ends that are not written are not given here.
observation_type: Kd (µM)

In [3]: df
Out[3]:
                                     binder  observation_type  result
0  CVFTSDYAFC (disulfide 1-10 (inferred); also: GST fusion, site not given here) [GST-A-1]                Kd     7.8
1  CVFAHNYDYLVC (disulfide 1-12 (inferred); also: GST fusion, site not given here) [GST-B-2]                Kd     3.5
